system: NCI-H23 complex spheroids with HUVEC/MSC, viability; assay: Anticancer human tumor NCI-H23 cell line growth inhibition [RAS]; settings: second compound 1 µM; first compound 0.1 µM; hits give low values;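 also: spheroids exposed to compound for 7 days; 100% = DMSO vehicle control viability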
readout: viability, T/C (%)
// note: answer is a bare numeric in %

Entry under review: CC(C)n1nc(-c2ccc3oc(N)nc3c2)c2c(N)ncnc21 + C=CC(=O)N1CCN(c2nc(OCC3CCCN3C)nc3c(F)c(-c4nc(N)cc(C)c4C(F)(F)F)c(Cl)cc23)C(C)C1 . Reported viability, T/C? 16.2

And Cc1nc(N2CCC3(CC2)COC(C)C3N)c(CO)nc1Sc1ccnc(N)c1Cl (configuration not stated) + C=CC(=O)N1CCN(c2nc(OCC3CCCN3C)nc3c(F)c(-c4nc(N)cc(C)c4C(F)(F)F)c(Cl)cc23)C(C)C1 ? 32.8

And CC(Nc1ccc2c(c1)OCCn1cc(N3C(=O)OCC3C(F)F)nc1-2)C(N)=O (configuration not stated) + C#Cc1c(F)ccc2cc(O)cc(-c3ncc4c(N5CC6CCC(C5)N6)nc(OCC56CCCN5CC(F)C6)nc4c3F)c12 ? 86.5

And CC1(O)CCCC1n1c(=O)c(C(F)F)cc2cnc(NC3CCN(S(C)(=O)=O)CC3)nc21 (configuration not stated) + C#Cc1c(F)ccc2cc(O)cc(-c3ncc4c(N5CC6CCC(C5)N6)nc(OCC56CCCN5CC(F)C6)nc4c3F)c12 ? 66.1

And CC(C)n1nc(-c2ccc3oc(N)nc3c2)c2c(N)ncnc21 + C#Cc1c(F)ccc2cc(O)cc(-c3ncc4c(N5CC6CCC(C5)N6)nc(OCC56CCCN5CC(F)C6)nc4c3F)c12 ? 32.3

And CC(=O)OC12COC1CC(O)C1(C)C(=O)C(O)C3=C(C)C(OC(=O)C(O)C(NC(=O)OC(C)(C)C)c4ccccc4)CC(O)(C(OC(=O)c4ccccc4)C21)C3(C)C (configuration not stated) + C#Cc1c(F)ccc2cc(O)cc(-c3ncc4c(N5CC6CCC(C5)N6)nc(OCC56CCCN5CC(F)C6)nc4c3F)c12 ? 30.5

And C=CC(=O)N1CCN(c2nc(OCC3CCCN3C)nc3c(F)c(-c4nc(N)cc(C)c4C(F)(F)F)c(Cl)cc23)C(C)C1 (configuration not stated) + C#Cc1c(F)ccc2cc(O)cc(-c3ncc4c(N5CC6CCC(C5)N6)nc(OCC56CCCN5CC(F)C6)nc4c3F)c12 ? 39.2

And NC1c2ccccc2OC12CCN(c1cnc3c(N4CCCc5ncccc54)n[nH]c3n1)CC2 (configuration not stated) + C#Cc1c(F)ccc2cc(O)cc(-c3ncc4c(N5CC6CCC(C5)N6)nc(OCC56CCCN5CC(F)C6)nc4c3F)c12 ? 40.6

And C[C@@H](NC(=O)c1ncnc(N)c1Cl)c1ncc(C(=O)Nc2cc(C(F)(F)F)c(Cl)cn2)s1 + C=CC(=O)N1CCN(c2nc(OCC3CCCN3C)nc3c(F)c(-c4nc(N)cc(C)c4C(F)(F)F)c(Cl)cc23)C(C)C1 ? 44.4

And Cc1nc(N2CCC3(CC2)COC(C)C3N)c(CO)nc1Sc1ccnc(N)c1Cl (configuration not stated) + C#Cc1c(F)ccc2cc(O)cc(-c3ncc4c(N5CC6CCC(C5)N6)nc(OCC56CCCN5CC(F)C6)nc4c3F)c12 ? 60.7

And CC(Nc1ccc2c(c1)OCCn1cc(N3C(=O)OCC3C(F)F)nc1-2)C(N)=O (configuration not stated) + C=CC(=O)N1CCN(c2nc(OCC3CCCN3C)nc3c(F)c(-c4nc(N)cc(C)c4C(F)(F)F)c(Cl)cc23)C(C)C1 ? 33.5

And CC1(O)CCCC1n1c(=O)c(C(F)F)cc2cnc(NC3CCN(S(C)(=O)=O)CC3)nc21 (configuration not stated) + C=CC(=O)N1CCN(c2nc(OCC3CCCN3C)nc3c(F)c(-c4nc(N)cc(C)c4C(F)(F)F)c(Cl)cc23)C(C)C1 ? 25.9

And C=CC(=O)Nc1cc(Nc2nccc(-c3cn(C)c4ccccc34)n2)c(OC)cc1N(C)CCN(C)C + C#Cc1c(F)ccc2cc(O)cc(-c3ncc4c(N5CC6CCC(C5)N6)nc(OCC56CCCN5CC(F)C6)nc4c3F)c12 ? 86.6

And CC(=O)OC12COC1CC(O)C1(C)C(=O)C(O)C3=C(C)C(OC(=O)C(O)C(NC(=O)OC(C)(C)C)c4ccccc4)CC(O)(C(OC(=O)c4ccccc4)C21)C3(C)C (configuration not stated) + C=CC(=O)N1CCN(c2nc(OCC3CCCN3C)nc3c(F)c(-c4nc(N)cc(C)c4C(F)(F)F)c(Cl)cc23)C(C)C1 ? 14.7

And CCC(CC)c1cc(NC2CCC(N)C2)n2nccc2n1 (configuration not stated) + C=CC(=O)N1CCN(c2nc(OCC3CCCN3C)nc3c(F)c(-c4nc(N)cc(C)c4C(F)(F)F)c(Cl)cc23)C(C)C1 ? 42.8

And O=C(c1ccc(F)c(F)c1Nc1ccc(I)cc1F)N1CC(O)([C@@H]2CCCCN2)C1 + C#Cc1c(F)ccc2cc(O)cc(-c3ncc4c(N5CC6CCC(C5)N6)nc(OCC56CCCN5CC(F)C6)nc4c3F)c12 ? 43.8

And CCN1CCN(Cc2ccc(Nc3ncc(F)c(-c4cc(F)c5nc(C)n(C(C)C)c5c4)n3)nc2)CC1 + C#Cc1c(F)ccc2cc(O)cc(-c3ncc4c(N5CC6CCC(C5)N6)nc(OCC56CCCN5CC(F)C6)nc4c3F)c12 ? 42.6

----------
tested on: NCI-H23 complex spheroids with HUVEC/MSC, viability; assay: Anticancer human tumor NCI-H23 cell line growth inhibition [RAS]; conditions: second compound 0.316 µM; first compound 0.1 µM; active means viability on the fitted dose curve at most 10% of control; inactive means the rest;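 also: spheroids exposed to compound for 7 days; 100% = DMSO vehicle control viability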
I would appreciate it if you answered using one of these outcomes: yes (1) (active), no (0) (inactive)

Each compound tested received a call. Report the one for C=CC(=O)Nc1cc(Nc2nccc(-c3cn(C)c4ccccc34)n2)c(OC)cc1N(C)CCN(C)C + C#Cc1c(F)ccc2cc(O)cc(-c3ncc4c(N5CC6CCC(C5)N6)nc(OCC56CCCN5CC(F)C6)nc4c3F)c12 . no (0)

And CC(C)NCC(C(=O)N1CCN(c2ncnc3c2C(C)CC3O)CC1)c1ccc(Cl)cc1 (stereo not given) + C=CC(=O)N1CCN(c2nc(OCC3CCCN3C)nc3c(F)c(-c4nc(N)cc(C)c4C(F)(F)F)c(Cl)cc23)C(C)C1 ? no (0)

And C[C@@H](NC(=O)c1ncnc(N)c1Cl)c1ncc(C(=O)Nc2cc(C(F)(F)F)c(Cl)cn2)s1 + C=CC(=O)N1CCN(c2nc(OCC3CCCN3C)nc3c(F)c(-c4nc(N)cc(C)c4C(F)(F)F)c(Cl)cc23)C(C)C1 ? no (0)

And CC(C)n1nc(-c2ccc3oc(N)nc3c2)c2c(N)ncnc21 + C=CC(=O)N1CCN(c2nc(OCC3CCCN3C)nc3c(F)c(-c4nc(N)cc(C)c4C(F)(F)F)c(Cl)cc23)C(C)C1 ? no (0)

And Nc1ccn(C2OC(CO)C(O)C2(F)F)c(=O)n1 (stereo not given) + C#Cc1c(F)ccc2cc(O)cc(-c3ncc4c(N5CC6CCC(C5)N6)nc(OCC56CCCN5CC(F)C6)nc4c3F)c12 ? yes (1)

And CCC(CC)c1cc(NC2CCC(N)C2)n2nccc2n1 (stereo not given) + C=CC(=O)N1CCN(c2nc(OCC3CCCN3C)nc3c(F)c(-c4nc(N)cc(C)c4C(F)(F)F)c(Cl)cc23)C(C)C1 ? no (0)

And Cc1nc(N2CCC3(CC2)COC(C)C3N)c(CO)nc1Sc1ccnc(N)c1Cl (stereo not given) + C#Cc1c(F)ccc2cc(O)cc(-c3ncc4c(N5CC6CCC(C5)N6)nc(OCC56CCCN5CC(F)C6)nc4c3F)c12 ? no (0)

And CCC(CC)c1cc(NC2CCC(N)C2)n2nccc2n1 (stereo not given) + C#Cc1c(F)ccc2cc(O)cc(-c3ncc4c(N5CC6CCC(C5)N6)nc(OCC56CCCN5CC(F)C6)nc4c3F)c12 ? no (0)

And CC(C)n1nc(-c2ccc3oc(N)nc3c2)c2c(N)ncnc21 + C#Cc1c(F)ccc2cc(O)cc(-c3ncc4c(N5CC6CCC(C5)N6)nc(OCC56CCCN5CC(F)C6)nc4c3F)c12 ? no (0)

And CC(=O)OC12COC1CC(O)C1(C)C(=O)C(O)C3=C(C)C(OC(=O)C(O)C(NC(=O)OC(C)(C)C)c4ccccc4)CC(O)(C(OC(=O)c4ccccc4)C21)C3(C)C (stereo not given) + C#Cc1c(F)ccc2cc(O)cc(-c3ncc4c(N5CC6CCC(C5)N6)nc(OCC56CCCN5CC(F)C6)nc4c3F)c12 ? no (0)

----------
system: NCI-H23 complex spheroids with HUVEC/MSC, viability; experiment: Anticancer human tumor NCI-H23 cell line growth inhibition [RAS]; conditions: second compound 10 µM; first compound 0.1 µM; hits give low values;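 also: spheroids exposed to compound for 7 days; 100% = DMSO vehicle control viability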
readout: viability, T/C (%)
// note: answer is a bare numeric in %

Entry under review: Nc1ccn(C2OC(CO)C(O)C2(F)F)c(=O)n1 (stereo not drawn) + C#Cc1c(F)ccc2cc(O)cc(-c3ncc4c(N5CC6CCC(C5)N6)nc(OCC56CCCN5CC(F)C6)nc4c3F)c12 . Reported viability, T/C? 2.92

And NC1c2ccccc2OC12CCN(c1cnc3c(N4CCCc5ncccc54)n[nH]c3n1)CC2 (stereo not drawn) + C#Cc1c(F)ccc2cc(O)cc(-c3ncc4c(N5CC6CCC(C5)N6)nc(OCC56CCCN5CC(F)C6)nc4c3F)c12 ? 30.7

And CCC(CC)c1cc(NC2CCC(N)C2)n2nccc2n1 (stereo not drawn) + C#Cc1c(F)ccc2cc(O)cc(-c3ncc4c(N5CC6CCC(C5)N6)nc(OCC56CCCN5CC(F)C6)nc4c3F)c12 ? 45.5
